Reported Kd values are given for each entry in this list.
target: T1, RSV F subtype B, furin-cleaved ectodomain stabilized in the prefusion conformation (DS-Cav1) (Respiratory syncytial virus subtype B); assay: BLI, IgG on AHQ sensor, 100 nM antigen
T1 construct: extracellular domain; Trimeric soluble antigen; also called Prefusion subtype B

>  <binder>
ADI-18927 (antibody, V domains shown, full-length IgG from yeast) VH: QVQLVQSGAEVKKPGASVKVSCKASGYTFTDYFIHWVRQAPGEGLEWMGWVNPLSDNTKYSQKFQGRVTMSTDTSITTAYMYLSRLRFDDTAVYFCASQSSPYTPGALDVWGQGTTVTVSS VL: DIQLTQSPSSLPASVGDRVTITCRASQNIGNNLAWYQQKAGRAPKLLIYSASNFHSGVPSRFIGSGSGTVFTLTISSLQPEDFATYFCQQSFTPQFTFGPGTKVEIK

>  <Kd>
2.99 nM

$$$$
>  <binder>
ADI-18972 (antibody, V domains shown, full-length IgG from yeast; also called Antibody Number 320; Ab # 320) VH: QVQLVQSGAEVKKPGASVKVSCKTSGYTFSNYGISWLRQAPGQGLEWMAWISPYNGNTKSAQRFQGRVIMTTDTSTRTAHMEVKSLRTDDTATYYCARDPAVDAIPMLDYWGQGTLVTVSS VL: DIQMTQSPLSLPVTLGQPASISCRSSQSLVYTDGNTYLSWFQQRPGQSPRRLIYRVSHRDSGVPDRFTGSGSGTDFTLIIRRVEAEDVGVYYCMQGTHWPLTFGGGTKLEIK

>  <Kd>
0.368 nM

$$$$
>  <binder>
ADI-18955 (antibody, V domains shown, full-length IgG from yeast; also called Antibody Number 306; Ab # 306) VH: EVQLVESGGGVVQSGRSLRLSCAASGFIFSDNGMHWVRQAPGKGLEWVAGIFYDGSNKQYADSVKGRFTISRDNSKNTLYLQMKSLRAEDTAVYYCARAPYDIWSGYCLDYWGQGTLVTVSS VL: DIQVTQSPATLSMSPGERATLSCRASQSVNNNLAWYQQRPGQAPRLLIYGASTRATGIPARFSGSGSETEFTLTISSLQSEDFAVYHCQQYSIWPQTFGQGTKVEIK

>  <Kd>
2.37 nM

$$$$
